src = patent US8283465B2

- System: human EPO production, Hep3B cells
- Measurement Protocol: Human EPO production activity in Hep3B cells (EPO-ELISA of culture supernatant)
- Assay type: cell-based
- Experimental Conditions: Homo sapiens, 24 hr incubation, values consisting solely of numbers, read-out: EC50 (μM) in vitro, human EPO production activity
Structures can show the parent of a compound that is named as a salt.
Measure Name: EC50 (µM)

Worked set:
>>> observed_value("Cc1ccc(-c2cc(O)c(C(=O)NCC(=O)O)c3ncnn23)cc1 [Example 26, hydrochloride]")
7.5
>>> observed_value("CC(NC(=O)c1c(O)cc(-c2cc(F)cc(F)c2)n2ncnc12)C(=O)O (stereo not drawn) [Example 66, hydrochloride]")
21.1
>>> observed_value("CC(C)(C)Cc1cc(O)c(C(=O)NCC(=O)O)c2ncnn12 [Example 39, hydrochloride]")
22.3
>>> observed_value("CC(C)CCc1cc(O)c(C(=O)NCC(=O)O)c2ncnn12 [Example 18, hydrochloride]")
6.1
>>> observed_value("O=C(O)CNC(=O)c1c(O)cc(-c2cc(F)cc(Cl)c2)c2ncnn12 [Example 105, acetic acid hydrochloride]")
5.9

I: O=C(O)CNC(=O)c1c(O)cc(-c2cccc(C(F)(F)F)c2)c2ncnn12 [Example 110, acetic acid hydrochloride]
II: O=C(O)CNC(=O)c1c(O)c(Cl)c(CCc2ccccc2)n2ncnc12 [Example 80, acetic acid hydrochloride]
### Prompt EC50 comparison. Which is larger, I or II ? Kindly state the label of the option you pick.
### Response II
(II: 23.3 µM, I: 6.5 µM)

A: O=C(O)CNC(=O)c1c(O)cc(CCc2ccc(Cl)cc2)n2ncnc12 [Example 14, hydrochloride]
B: O=C(O)CNC(=O)c1c(O)cc(-c2cccc(Cl)c2F)n2ncnc12 [Example 56, acetic acid hydrochloride]
### Prompt EC50 comparison. Which is larger, A or B ? Kindly state the label of the option you pick.
### Response B
